- Run description: Cytotoxicity against MDCK cells assessed as minimum compound concentration required to causes microscopically detectable alteration of normal cell morphology
- Format: cell-based, Canis lupus familiaris
- Assay setup: dog
Entries annotated with measured MCC

[
  {
    "Compound": "Cc1nc(NCCNc2ccnc3cc(Cl)ccc23)nc(-c2ccccc2[N+](=O)[O-])c1C(=O)OC(C)C",
    "MCC": "≥ 0.8 µM"
  },
  {
    "Compound": "NC(=O)c1ncn([C@@H]2O[C@H](CO)[C@@H](O)[C@H]2O)n1",
    "MCC": "> 100 µM"
  },
  {
    "Compound": "NC12CC3CC(CC(C3)C1)C2",
    "MCC": "> 200 µM"
  },
  {
    "Compound": "CC(N)C12CC3CC(CC(C3)C1)C2 (centres undefined)",
    "MCC": "> 200 µM"
  }
]

====

Entries annotated with measured EC50
- Test system: Influenza A virus
- Run description: Antiviral activity against Influenza A virus H1N1 infected in MDCK cells assessed as reduction visual scoring of virus-induced cytopathogenicity after 4 days
- Type: functional, organism-based
- Assay setup: 96 h

[
  {
    "Substance smiles": "CCOC(=O)c1c(C)nc(NCCCCNc2ccnc3cc(Cl)ccc23)nc1C",
    "EC50": "> 800 nM"
  },
  {
    "Substance smiles": "CCOC(=O)c1c(C)nc(NCCCCNc2ccnc3cc(Cl)ccc23)nc1-c1ccccc1",
    "EC50": "> 160 nM"
  },
  {
    "Substance smiles": "CCOC(=O)c1c(C)nc(NCCCNc2ccnc3cc(Cl)ccc23)nc1C",
    "EC50": "> 4000 nM"
  },
  {
    "Substance smiles": "Cc1nc(NCCNc2ccnc3cc(Cl)ccc23)nc(-c2ccccc2[N+](=O)[O-])c1C(=O)OC(C)C",
    "EC50": "> 800 nM"
  },
  {
    "Substance smiles": "NC12CC3CC(CC(C3)C1)C2",
    "EC50": "89000 nM"
  }
]

====

- Run description: Cytotoxicity against african green monkey Vero cells assessed as minimum compound concentration required to causes microscopically detectable alteration of normal cell morphology
- Type: cell-based
- Assay setup: chlorocebus sabaeus
Entries annotated with measured MCC
Quantity kind: MCC

[
  {
    "Compound": "CCOC(=O)c1c(C)nc(NCCCCNc2ccnc3cc(Cl)ccc23)nc1-c1ccccc1",
    "Test value": "> 100 µM"
  },
  {
    "Compound": "CCOC(=O)c1c(C)nc(NCCCNc2ccnc3cc(Cl)ccc23)nc1C",
    "Test value": "> 100 µM"
  },
  {
    "Compound": "Nc1ncnc2c1ncn2C[C@H](O)CO [(S)-DHPA]",
    "Test value": "> 250 µM"
  },
  {
    "Compound": "NC(=O)c1ncn([C@@H]2O[C@H](CO)[C@@H](O)[C@H]2O)n1 [RIBAVIRIN]",
    "Test value": "> 250 µM"
  }
]

====

- Test system: Influenza B virus
- Run description: Antiviral activity against Influenza B virus infected in MDCK cells assessed as inhibition of virus-induced cytopathogenicity after 4 days by colorimetric formazan-based MTS assay
- Type: functional, organism-based
- Assay setup: 96 h
pEC50: −log10 of the molar value.
Entries annotated with measured pEC50

[
  {
    "Substance smiles": "Cc1nc(NCCCNc2ccnc3cc(Cl)ccc23)nc(-c2cccc([N+](=O)[O-])c2)c1C(=O)OC(C)C",
    "pEC50": "< 6.80"
  },
  {
    "Substance smiles": "CCOC(=O)c1c(C)nc(NCCNc2ccnc3cc(Cl)ccc23)nc1-c1ccccc1",
    "pEC50": "< 6.80"
  },
  {
    "Substance smiles": "Cc1nc(NCCNc2ccnc3cc(Cl)ccc23)nc(-c2ccccc2[N+](=O)[O-])c1C(=O)OC(C)C",
    "pEC50": "< 6.10"
  },
  {
    "Substance smiles": "CCOC(=O)c1c(C)nc(NCCCCNc2ccnc3cc(Cl)ccc23)nc1C",
    "pEC50": "< 6.10"
  }
]
